src = patent US7381542B2

molecular target: rat trace amine receptor (Rattus norvegicus, UniProt Q923Y9, L170Q/L53I/P183L/R211E/S15R); construct: expression vector containing the full-length rat cDNA clone described above; expressed in transfected cells; experiment: cell-based; type: cell-based; details: untitled table after Table III, second value column; read-out: EC50 (nM), NEUROTRANSMITTERS, second column (no head of its own)
Sequence (Q923Y9 whole entry S15R/L53I/L170Q/P183L/R211E): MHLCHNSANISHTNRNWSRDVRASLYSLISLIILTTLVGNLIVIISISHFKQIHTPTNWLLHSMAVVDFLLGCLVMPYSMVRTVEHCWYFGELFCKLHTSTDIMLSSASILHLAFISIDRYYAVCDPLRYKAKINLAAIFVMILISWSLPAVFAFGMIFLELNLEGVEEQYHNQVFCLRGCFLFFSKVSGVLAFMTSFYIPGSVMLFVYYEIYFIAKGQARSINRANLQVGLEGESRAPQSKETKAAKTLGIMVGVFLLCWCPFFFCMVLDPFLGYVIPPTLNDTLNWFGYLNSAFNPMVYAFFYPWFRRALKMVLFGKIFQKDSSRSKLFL
Quick reference for EC50 among some molecules

Query block: For the molecule NCCc1c[nH]c2ccc(O)cc12 [5-hydroxytryptamine] , what EC50 is on record?
Result block: 8000 nM

Query block: Sample NCCc1c[nH]c2ccccc12 [Tryptamine] — what was its EC50?
Result block: 519 nM

Query block: EC50 for NCCc1ccccc1 [Phenethylamine, β-phenethylamine] ?
Result block: 124 nM

Query block: Any idea what its EC50 is? The molecule is NCCc1cccc(O)c1 [m-tyramine]
Result block: 5800 nM
